Give viability at 28.5 h, 10 µM for every item shown.
- Assay Explanation: in vitro
- Measurement Setup: human, hela cells, % viability
Answer in %, number only, no unit symbol.

Quick one: viability at 28.5 h, 10 µM for `Nc1ncc(-c2ccccc2CO)nc1N1CCN(CCO)CC1` ?
100

Quick one: viability at 28.5 h, 10 µM for `N#Cc1cccc(NC(=O)c2cccs2)c1` ?
96.2

Quick one: viability at 28.5 h, 10 µM for `O=C(NCCc1c[nH]c2cccc(C3(O)CCCC3)c12)C1CC1` ?
82.3

Quick one: viability at 28.5 h, 10 µM for `C#CCN1C(=O)C2(OCCO2)c2cccc(C)c21` ?
95.1

Quick one: viability at 28.5 h, 10 µM for `Cc1ccc(S(=O)(=O)Nc2ccc(Nc3cc(-c4cc5ccccc5o4)ncn3)cc2)cc1` ?
96.8

Quick one: viability at 28.5 h, 10 µM for `CC(C)NC(=O)Nc1ccc(C(=O)N(CCC#N)Cc2ccco2)cc1` ?
82.3

Quick one: viability at 28.5 h, 10 µM for CN(C)CCNc1cc(-c2ccncc2)nc2ccccc12 [CBK066898B] ?
90.4

Quick one: viability at 28.5 h, 10 µM for Cc1ccc(C2CC(=O)c3cnc(N)nc3C2)cc1 (centres unmarked) ?
92

Quick one: viability at 28.5 h, 10 µM for O=C(/C=C/c1cn(C2CC(O)C(CO)O2)c(=O)[nH]c1=O)NCCCCCCNC(=O)C(F)(F)F (centres unmarked) ?
94.3

Quick one: viability at 28.5 h, 10 µM for `O=C(NCc1cccnc1)C(=O)Nc1ccc(F)cc1F` ?
101

Quick one: viability at 28.5 h, 10 µM for `CCCNC(=O)Cc1sccc1NS(=O)(=O)c1ccc(C)cc1` ?
83

Quick one: viability at 28.5 h, 10 µM for `O=C(NCc1ccc(Cl)c(Cl)c1)N1CCN(c2cc(C(F)(F)F)ccn2)CC1` ?
94.3

Quick one: viability at 28.5 h, 10 µM for `O=C(NCCc1ccc(O)cc1)c1ccc(-c2ccc(OC(F)(F)F)cc2)nc1` ?
95.8

Quick one: viability at 28.5 h, 10 µM for CC1CCCN(C(=O)c2cc(-c3ccccn3)n[nH]2)C1C (centres unmarked) ?
88.5

Quick one: viability at 28.5 h, 10 µM for `COc1ccnc(N2CCN(C(=O)c3cc(C)nn3C)CC2)n1` ?
83.7

Quick one: viability at 28.5 h, 10 µM for Cc1nn(C)c2ncc(S(=O)(=O)NCC(N)c3ccc(F)cc3F)cc12 (centres unmarked) [CBK304303C] ?
99.1

Quick one: viability at 28.5 h, 10 µM for CC(=O)N1c2ccc(C(O)CN3CCSCC3)cc2CC1C (centres unmarked) ?
98.9

Quick one: viability at 28.5 h, 10 µM for `O=S(=O)(c1ccc(C(F)(F)F)cc1Cl)N1CCN(Cc2c[nH]nc2-c2cccs2)CC1` ?
108

Quick one: viability at 28.5 h, 10 µM for c1ccc2c(CCN3CCN(c4nccnc4OC4CCCCC4)CC3)c[nH]c2c1 [CBK082847T] ?
100

Quick one: viability at 28.5 h, 10 µM for O=C(O)C1(Cc2ccc(-c3cccs3)cc2)CCNC1 (centres unmarked) ?
90.8

* * *

- Assay Explanation: in vitro
- Measurement Setup: human, hela cells, % viability
Attribute Measured: viability at 28.5 h, 10 µM (%)
Answer in %, number only, no unit symbol.

Quick one: viability at 28.5 h, 10 µM for Cc1cc(NC(=O)C(C)N(C)CCOc2ccccc2Cl)no1 (stereo not drawn) ?
107

Quick one: viability at 28.5 h, 10 µM for COc1ccccc1N1CCN(CC(=O)NC2CC3CCC2C3)CC1 (stereo not drawn) ?
94.8

Quick one: viability at 28.5 h, 10 µM for `Cc1ccc2c(C)nc(Nc3nc(CSc4nnc(C)s4)cc(=O)[nH]3)nc2c1` ?
87.1

Quick one: viability at 28.5 h, 10 µM for Cc1csc(C(Cc2ccsc2)NC(=O)CN2CCCC2=O)n1 (stereo not drawn) ?
81.9

Quick one: viability at 28.5 h, 10 µM for `CCCn1c(C)cc(-c2csc(NC(=O)CCn3c(-c4cccs4)n[nH]c3=S)n2)c1C` ?
90.8

Quick one: viability at 28.5 h, 10 µM for `COc1ccccc1N1CCN(C(=O)c2ccc3c(c2)no[n+]3[O-])CC1` ?
85

Quick one: viability at 28.5 h, 10 µM for `Cc1ccc(NC(=O)Cn2cnc3c(cnn3-c3ccc(C)cc3)c2=O)cc1` ?
104

Quick one: viability at 28.5 h, 10 µM for `Cn1nc(C2CCN(C(=O)CC3CCCC3)CC2)c2cccnc21` ?
111

Quick one: viability at 28.5 h, 10 µM for `O=C(Nc1nc(-c2cccnc2)cs1)c1ccccc1` ?
91.3
